- system_tested: UniProt:Q9YQ12
- test_method_notes: Inhibition of purified HIV-1 protease using [Arg-Glu(EDANS)-Ser-Gin-Asn-Tyr-Ile-Val-Gin-Lys(dabcyl)-Arg) as fluorogenic substrate at 50 ng/ml by fluorescence assay
value_kind: Inhibition (%)
The figure you give is taken to be in %; do not add the unit.

Observe how each entry below is paired with its result.
smiles_entry	system_tested	units_text	Inhibition
COc1ccc(S(=O)(=O)N(CC(C)C)C[C@@H](O)[C@H](Cc2ccccc2)NC(=O)O[C@H]2CO[C@H]3[C@@H]2OC[C@H]3O[N+](=O)[O-])cc1	UniProt:Q9YQ12	%	93.1
COc1ccc(S(=O)(=O)N(CC(C)C)C[C@@H](O)[C@H](Cc2ccccc2)NC(=O)O[C@H]2CO[C@H]3[C@@H]2OC[C@H]3O)cc1	UniProt:Q9YQ12	%	97.2
CO[C@@H]1CO[C@H]2[C@@H]1OC[C@@H]2OC(=O)N[C@@H](Cc1ccccc1)[C@H](O)CN(CC(C)C)S(=O)(=O)c1ccc(N)cc1	UniProt:Q9YQ12	%	97
CC(C)CN(C[C@@H](O)[C@H](Cc1ccccc1)NC(=O)O[C@H]1CO[C@H]2[C@@H]1OC[C@H]2O[N+](=O)[O-])S(=O)(=O)c1ccc(N)cc1	UniProt:Q9YQ12	%	94.7
CC(C)CN(C[C@@H](O)[C@H](Cc1ccccc1)NC(=O)O[C@H]1CO[C@H]2[C@@H]1OC[C@H]2O)S(=O)(=O)c1ccc(N)cc1	UniProt:Q9YQ12	%	98.3

Note: attention shifts to another entry.
stdin: Quick one: give measured Inhibition for COc1ccc(S(=O)(=O)N(CC(C)C)C[C@@H](O)[C@H](Cc2ccccc2)NC(=O)O[C@H]2CO[C@H]3[C@@H]2OC[C@H]3OC)cc1
stdout: 96.2

---

- system_tested: Protease (Human immunodeficiency virus 1, UniProt Q9YQ12)
- Sequence (Q9YQ12 whole entry): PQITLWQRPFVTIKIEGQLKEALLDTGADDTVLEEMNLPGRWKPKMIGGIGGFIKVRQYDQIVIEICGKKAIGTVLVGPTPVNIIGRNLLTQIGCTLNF
- test_method_notes: Inhibition of purified HIV-1 protease using [Arg-Glu(EDANS)-Ser-Gin-Asn-Tyr-Ile-Val-Gin-Lys(dabcyl)-Arg) as fluorogenic substrate by fluorescence assay
// IC50 lookup, one value per entry
Express your answer in nM, writing the number without its unit.

Past entries and their recorded results:
smiles_entry	system_tested	observed_value
COc1ccc(S(=O)(=O)N(CC(C)C)C[C@@H](O)[C@H](Cc2ccccc2)NC(=O)O[C@H]2CO[C@H]3[C@@H]2OC[C@H]3OC)cc1	Protease (Human immunodeficiency virus 1, UniProt Q9YQ12)	0.05
CC(C)CN(C[C@@H](O)[C@H](Cc1ccccc1)NC(=O)O[C@H]1CO[C@H]2[C@@H]1OC[C@H]2O)S(=O)(=O)c1ccc(N)cc1	Protease (Human immunodeficiency virus 1, UniProt Q9YQ12)	0.43
CO[C@@H]1CO[C@H]2[C@@H]1OC[C@@H]2OC(=O)N[C@@H](Cc1ccccc1)[C@H](O)CN(CC(C)C)S(=O)(=O)c1ccc(N)cc1	Protease (Human immunodeficiency virus 1, UniProt Q9YQ12)	0.36

Alright, here's another compound for you.
stdin: Name the recorded IC50 of the compound listed here: COc1ccc(S(=O)(=O)N(CC(C)C)C[C@@H](O)[C@H](Cc2ccccc2)NC(=O)O[C@H]2CO[C@H]3[C@@H]2OC[C@H]3O[N+](=O)[O-])cc1
stdout: 0.11

---

- system_tested: Protease (Human immunodeficiency virus 1, UniProt Q9YQ12)
- test_method_notes: Inhibition of purified HIV-1 protease using [Arg-Glu(EDANS)-Ser-Gin-Asn-Tyr-Ile-Val-Gin-Lys(dabcyl)-Arg) as fluorogenic substrate at 10 ng/ml by fluorescence assay
value_kind: Inhibition (%)
Could you give me the number in %? Just the number is fine.

Known results for molecules:
smiles_entry	system_tested	Inhibition / %
CO[C@@H]1CO[C@H]2[C@@H]1OC[C@@H]2OC(=O)N[C@@H](Cc1ccccc1)[C@H](O)CN(CC(C)C)S(=O)(=O)c1ccc(N)cc1	Protease (Human immunodeficiency virus 1, UniProt Q9YQ12)	100
CC(C)CN(C[C@@H](O)[C@H](Cc1ccccc1)NC(=O)O[C@H]1CO[C@H]2[C@@H]1OC[C@H]2O)S(=O)(=O)c1ccc(N)cc1	Protease (Human immunodeficiency virus 1, UniProt Q9YQ12)	95.4

stdin: // fetch Inhibition given entry COc1ccc(S(=O)(=O)N(CC(C)C)C[C@@H](O)[C@H](Cc2ccccc2)NC(=O)O[C@H]2CO[C@H]3[C@@H]2OC[C@H]3O[N+](=O)[O-])cc1
stdout: 100

---

- system_tested: UniProt Q9YQ12
- test_method_notes: Inhibition of purified HIV-1 protease using [Arg-Glu(EDANS)-Ser-Gin-Asn-Tyr-Ile-Val-Gin-Lys(dabcyl)-Arg) as fluorogenic substrate at 10 ng/ml by fluorescence assay
Each entry below carries its recorded Inhibition.
Entry rule: numbers only, all in %.

Below are worked cases with known answers.
smiles_entry	Inhibition, %
CC(C)CN(C[C@@H](O)[C@H](Cc1ccccc1)NC(=O)O[C@H]1CO[C@H]2[C@@H]1OC[C@H]2O[N+](=O)[O-])S(=O)(=O)c1ccc(N)cc1	98.6
COc1ccc(S(=O)(=O)N(CC(C)C)C[C@@H](O)[C@H](Cc2ccccc2)NC(=O)O[C@H]2CO[C@H]3[C@@H]2OC[C@H]3OC)cc1	102

stdin: For UniProt Q9YQ12, give Inhibition of the listed compound: COc1ccc(S(=O)(=O)N(CC(C)C)C[C@@H](O)[C@H](Cc2ccccc2)NC(=O)O[C@H]2CO[C@H]3[C@@H]2OC[C@H]3O)cc1
stdout: 98
